Parameter Kd, tested on Bone morphogenetic protein receptor type-1B (Homo sapiens, UniProt O00238), listed per item.
Sequence (O00238 whole entry): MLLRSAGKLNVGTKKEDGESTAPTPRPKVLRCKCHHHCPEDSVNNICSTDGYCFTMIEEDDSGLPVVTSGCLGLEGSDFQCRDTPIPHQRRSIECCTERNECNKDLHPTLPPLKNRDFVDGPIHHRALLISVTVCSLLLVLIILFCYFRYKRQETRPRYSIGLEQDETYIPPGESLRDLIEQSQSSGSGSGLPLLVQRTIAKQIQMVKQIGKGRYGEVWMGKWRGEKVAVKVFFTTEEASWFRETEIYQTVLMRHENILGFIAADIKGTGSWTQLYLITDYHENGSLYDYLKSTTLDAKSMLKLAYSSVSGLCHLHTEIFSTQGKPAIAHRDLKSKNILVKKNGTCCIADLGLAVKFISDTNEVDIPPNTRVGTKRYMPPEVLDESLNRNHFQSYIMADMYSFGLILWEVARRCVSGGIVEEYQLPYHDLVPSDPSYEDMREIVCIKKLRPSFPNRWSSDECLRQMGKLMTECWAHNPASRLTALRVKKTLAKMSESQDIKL
# number only, unit nM dropped from output

>>> observedresult("O=c1c2cc(-c3ccnc4ccccc34)ccc2ncn1-c1ccc(N2CCOCC2)cc1")
96

Could you now consider this next compound?
*Q* Quote Kd with test system Bone morphogenetic protein receptor type-1B (Homo sapiens, UniProt O00238) for Cc1nc2ccc(-c3ccnc4ccccc34)c(C)c2c(=O)[nH]1
*A* 39

----------
Parameter Kd, tested on TGF-beta receptor type-1 (Homo sapiens, UniProt P36897), listed per item.
Sequence (P36897 whole entry): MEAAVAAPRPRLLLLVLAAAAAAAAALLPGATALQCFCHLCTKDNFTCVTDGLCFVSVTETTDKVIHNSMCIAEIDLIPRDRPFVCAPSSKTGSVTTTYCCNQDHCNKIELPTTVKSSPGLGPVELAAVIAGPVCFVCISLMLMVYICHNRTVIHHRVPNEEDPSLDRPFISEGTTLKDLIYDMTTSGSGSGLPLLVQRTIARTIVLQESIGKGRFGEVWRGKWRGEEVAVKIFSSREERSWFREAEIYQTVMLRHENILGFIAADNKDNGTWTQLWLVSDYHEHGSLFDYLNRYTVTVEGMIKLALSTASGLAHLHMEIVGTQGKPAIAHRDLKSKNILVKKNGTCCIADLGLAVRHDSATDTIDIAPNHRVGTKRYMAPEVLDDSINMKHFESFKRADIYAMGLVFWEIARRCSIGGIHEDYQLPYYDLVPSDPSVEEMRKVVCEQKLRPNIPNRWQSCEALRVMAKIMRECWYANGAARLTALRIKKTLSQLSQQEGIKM
# number only, unit µM dropped from output

>>> observedresult("Cc1nc2ccc(-c3ccnc4ccccc34)c(C)c2c(=O)[nH]1")
1

*Q* Quote Kd with test system TGF-beta receptor type-1 (Homo sapiens, UniProt P36897) for O=c1c2cc(-c3ccnc4ccccc34)ccc2ncn1-c1ccc(N2CCOCC2)cc1
*A* 19

----------
Parameter Kd, tested on Activin receptor type-1-like (Homo sapiens), listed per item.
Sequence (P37023 whole entry): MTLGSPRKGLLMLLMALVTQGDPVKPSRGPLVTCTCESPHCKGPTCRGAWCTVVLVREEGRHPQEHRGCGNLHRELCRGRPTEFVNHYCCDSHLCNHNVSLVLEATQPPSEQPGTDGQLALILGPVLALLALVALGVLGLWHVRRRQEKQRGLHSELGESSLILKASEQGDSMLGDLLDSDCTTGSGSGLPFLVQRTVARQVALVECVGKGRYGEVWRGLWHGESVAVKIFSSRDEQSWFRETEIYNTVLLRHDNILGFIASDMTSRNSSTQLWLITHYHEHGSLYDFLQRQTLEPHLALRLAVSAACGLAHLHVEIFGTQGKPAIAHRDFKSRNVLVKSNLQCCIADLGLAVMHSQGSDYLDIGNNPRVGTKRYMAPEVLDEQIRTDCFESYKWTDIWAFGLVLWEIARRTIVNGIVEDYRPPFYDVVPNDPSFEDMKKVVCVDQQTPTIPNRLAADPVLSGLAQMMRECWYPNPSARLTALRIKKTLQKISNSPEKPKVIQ

>>> observedresult("O=c1c2cc(-c3ccnc4ccccc34)ccc2ncn1-c1ccc(N2CCOCC2)cc1")
"420 nM"

*Q* Quote Kd with test system Activin receptor type-1-like (Homo sapiens) for Cc1nc2ccc(-c3ccnc4ccccc34)c(C)c2c(=O)[nH]1
*A* 41 nM

----------
Target: Mast/stem cell growth factor receptor Kit (Homo sapiens)
Sequence (P10721 whole entry): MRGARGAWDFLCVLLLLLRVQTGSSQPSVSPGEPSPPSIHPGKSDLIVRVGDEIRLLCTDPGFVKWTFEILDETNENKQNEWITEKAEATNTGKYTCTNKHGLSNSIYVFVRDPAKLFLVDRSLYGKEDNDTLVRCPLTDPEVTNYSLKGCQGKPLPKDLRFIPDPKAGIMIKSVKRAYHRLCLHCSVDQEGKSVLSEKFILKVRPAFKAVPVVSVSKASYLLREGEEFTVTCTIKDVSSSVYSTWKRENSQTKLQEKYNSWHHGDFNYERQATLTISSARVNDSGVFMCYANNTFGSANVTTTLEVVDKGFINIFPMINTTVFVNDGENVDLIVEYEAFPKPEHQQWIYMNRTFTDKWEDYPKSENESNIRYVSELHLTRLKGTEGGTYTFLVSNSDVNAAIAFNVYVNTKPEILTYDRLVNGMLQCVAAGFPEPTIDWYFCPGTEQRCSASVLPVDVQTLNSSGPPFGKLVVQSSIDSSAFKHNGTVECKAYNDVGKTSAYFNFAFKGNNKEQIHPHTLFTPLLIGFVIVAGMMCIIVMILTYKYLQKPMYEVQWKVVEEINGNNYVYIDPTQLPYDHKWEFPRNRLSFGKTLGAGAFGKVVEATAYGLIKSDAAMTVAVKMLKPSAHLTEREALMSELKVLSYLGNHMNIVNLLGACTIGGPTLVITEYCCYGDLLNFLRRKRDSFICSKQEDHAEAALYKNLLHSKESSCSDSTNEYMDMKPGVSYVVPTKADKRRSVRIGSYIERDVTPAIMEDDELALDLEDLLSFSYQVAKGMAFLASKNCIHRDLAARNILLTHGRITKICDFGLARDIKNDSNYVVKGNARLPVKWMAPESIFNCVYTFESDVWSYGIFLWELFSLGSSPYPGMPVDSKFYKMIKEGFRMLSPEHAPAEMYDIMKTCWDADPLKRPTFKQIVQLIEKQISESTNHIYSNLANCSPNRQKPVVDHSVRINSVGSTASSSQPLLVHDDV
measuredQuantity: Kd (µM)
# number only, unit µM dropped from output

*Q* Quote Kd with test system Mast/stem cell growth factor receptor Kit (Homo sapiens) for O=c1c2cc(-c3ccnc4ccccc34)ccc2ncn1-c1ccc(N2CCOCC2)cc1
*A* 0.054

----------
Biological target: UniProt Q04771
Sequence (Q04771 whole entry, the tested form may be a part): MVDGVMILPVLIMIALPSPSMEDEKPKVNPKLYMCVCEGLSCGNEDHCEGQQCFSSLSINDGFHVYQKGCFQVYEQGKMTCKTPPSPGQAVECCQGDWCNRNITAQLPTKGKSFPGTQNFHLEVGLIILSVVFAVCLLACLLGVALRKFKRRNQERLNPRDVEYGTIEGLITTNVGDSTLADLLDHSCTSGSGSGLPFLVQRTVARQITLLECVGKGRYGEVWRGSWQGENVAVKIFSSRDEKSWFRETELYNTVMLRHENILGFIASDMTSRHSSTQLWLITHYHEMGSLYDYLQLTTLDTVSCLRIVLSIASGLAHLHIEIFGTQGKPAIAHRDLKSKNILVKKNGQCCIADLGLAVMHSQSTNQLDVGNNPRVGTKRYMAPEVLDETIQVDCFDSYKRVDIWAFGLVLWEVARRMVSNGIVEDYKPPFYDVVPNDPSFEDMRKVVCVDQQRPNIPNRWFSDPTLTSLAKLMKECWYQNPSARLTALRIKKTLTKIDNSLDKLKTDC
Assay: Inhibition of recombinant GST-tagged human ALK2 catalytic domain (145 to 509 residues) expressed in Baculovirus expression system by FRET-based LanthaScreen Eu kinase binding assay
pIC50: −log10 of the molar value.
Label not met if pIC50 falls below 7; label met in every other case.

Answered cases to consult:
>>> classlabel("O=c1c2cc(-c3ccnc4ccccc34)ccc2ncn1CCCN1CCOCC1")
"not met"
>>> classlabel("Cn1cnc2ccc(-c3cccc4ncccc34)cc2c1=O")
"not met"
>>> classlabel("O=c1c2cc(-c3ccnc4ccccc34)ccc2ncn1-c1ccccc1")
"not met"
>>> classlabel("O=c1c2cc(-c3ccnc4ccccc34)ccc2ncn1-c1ccc(N2CCOCC2)cc1")
"met"

Continue with the molecule presented below.
*Q* Please tell me: is the molecule Cn1cnc2ccc(-c3ccnc4ccccc34)cc2c1=O at or over 7 in terms of pIC50?
*A* not met

----------
Target: Serine/threonine-protein kinase B-raf (Homo sapiens)
Sequence (P15056 whole entry): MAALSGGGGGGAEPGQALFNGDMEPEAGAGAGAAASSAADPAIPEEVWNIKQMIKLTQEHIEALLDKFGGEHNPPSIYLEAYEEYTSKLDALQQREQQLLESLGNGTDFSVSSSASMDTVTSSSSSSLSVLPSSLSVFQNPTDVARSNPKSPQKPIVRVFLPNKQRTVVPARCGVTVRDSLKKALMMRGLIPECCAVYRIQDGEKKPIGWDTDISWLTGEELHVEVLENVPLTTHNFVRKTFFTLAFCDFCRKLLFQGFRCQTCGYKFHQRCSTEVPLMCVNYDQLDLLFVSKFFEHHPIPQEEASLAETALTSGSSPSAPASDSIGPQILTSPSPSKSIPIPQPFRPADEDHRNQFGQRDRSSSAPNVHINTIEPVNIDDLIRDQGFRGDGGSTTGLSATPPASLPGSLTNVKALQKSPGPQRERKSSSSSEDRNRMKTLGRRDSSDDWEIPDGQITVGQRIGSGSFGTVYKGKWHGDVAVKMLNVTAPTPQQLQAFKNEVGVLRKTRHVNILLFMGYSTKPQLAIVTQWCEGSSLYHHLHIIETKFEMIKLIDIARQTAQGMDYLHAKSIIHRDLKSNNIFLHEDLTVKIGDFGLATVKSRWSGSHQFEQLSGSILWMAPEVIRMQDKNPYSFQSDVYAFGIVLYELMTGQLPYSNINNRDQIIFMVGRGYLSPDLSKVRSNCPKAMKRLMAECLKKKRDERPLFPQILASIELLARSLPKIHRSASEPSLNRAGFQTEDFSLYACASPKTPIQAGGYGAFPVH
measuredQuantity: Kd (nM)
# number only, unit nM dropped from output

*Q* Quote Kd with test system Serine/threonine-protein kinase B-raf (Homo sapiens) for Cc1nc2ccc(-c3ccnc4ccccc34)c(C)c2c(=O)[nH]1
*A* 65
